// values below are reported Kd
Molecular target: T1, Rhesus-ICAM1 (rhesus, UniProt Q5NKV6 28-480, limits assumed)
T1 sequence (looked up): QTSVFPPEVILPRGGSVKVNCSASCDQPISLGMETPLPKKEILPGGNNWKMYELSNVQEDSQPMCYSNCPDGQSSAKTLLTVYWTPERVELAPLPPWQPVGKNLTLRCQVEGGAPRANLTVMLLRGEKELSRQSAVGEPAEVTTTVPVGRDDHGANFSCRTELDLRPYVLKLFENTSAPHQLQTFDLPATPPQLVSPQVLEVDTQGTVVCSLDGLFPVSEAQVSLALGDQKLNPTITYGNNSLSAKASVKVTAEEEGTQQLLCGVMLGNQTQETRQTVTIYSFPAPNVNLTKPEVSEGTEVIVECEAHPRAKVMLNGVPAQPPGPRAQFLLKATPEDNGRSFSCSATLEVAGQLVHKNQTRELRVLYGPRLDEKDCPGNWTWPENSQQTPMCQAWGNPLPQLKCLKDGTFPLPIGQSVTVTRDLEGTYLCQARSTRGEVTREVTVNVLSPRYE
Experiment: SPR (Biacore 8K), antibody captured, antigen injected

As a guide, the following entries are already answered.
| binder | Kd |
| --- | --- |
| 11F2 (antibody, human IgG1, kappa, V domains shown, Rabbit-human chimeric anti-ICAM1: rabbit VH and VL on human IgG1 and kappa constant regions) VH: QSVEESGGGLVKPGGTLTLTCTVSGFSLSSHAMGWVRQAPGKGLEYIGIIGSSDRTYYASWAKGRFTISKTSTTVDLKITSPTTEDTATYFCVRDPYDSYDDGYRLWGPGTLVTVSS VL: AYDMTQTPASVEVAVGGTVTIKCQASQSIYRYLSWYQKKPGQRPKFLIYDASKLASGVPSRFEGSGSGTEFTLTISGAQSDDAATYYCQQAYSSGSIDNAFGGGTEVVVKR | 0.25 nM |
| 8B12 (antibody, human IgG1, kappa, V domains shown, Rabbit-human chimeric anti-ICAM1: rabbit VH and VL on human IgG1 and kappa constant regions) VH: QSVEESGGGLVKPGGTLTLTCTVSGFSLSTHAMGWVRQAPGKGLEYIGIIGSSDRTYYASWAKGRFTISKTSTTVDLKITSPTTEDTATYFCVRDPYDSFDDGYRLWGPGTLVTVSS VL: AYDMTQTPASVEVAVGGTVTIKCQASQSIYSYLSWYQQKPGQRPKFLIYDASKVASGVPSRFKGSGSGTEFTLTISAVQSDDAATYYCQQAYSSSNVDNAFGGGTEVMVKR | 0.88 nM |
| 15D10 (antibody, human IgG1, kappa, V domains shown, Rabbit-human chimeric anti-ICAM1: rabbit VH and VL on human IgG1 and kappa constant regions) VH: QSVEESGGRLVTPGTPLTLTCTASGFSLNNYYMSWVRQAPGKGLEWIGIISDSDNTYYASWAKGRFTISKTSTTVDLKITSPTTEDTATYFCARDWSLDSSSGYYYYDMDLWGPGTLVTVSA VL: AYDMTQTPASMEVAVGGTVTIKCQASQNIHSWLAWFQQKPGQPPKRLIYKASTLASGVPSRFKGSGSGTQFTLTISGVQSDDAATYYCQQGYSRSDGEHVFGGGTEVVVKR | 1.79 nM |
| 4H5 (antibody, human IgG1, kappa, V domains shown, Rabbit-human chimeric anti-ICAM1: rabbit VH and VL on human IgG1 and kappa constant regions) VH: QSVEESGGRLVTPGTPLTLTCTASGFSLSNYYMSWVRQAPGKGLEWIGIISDSGTTYYASWAKGRFTISKTSTTVDLKITSPTTEDTATYFCARDWSYDSSSGYYYYDMDLWGPGTLVTVSA VL: GYDMTQTPASVEVAVGGTVTIKCQASQSINSWLVWFQHKPGQPPKRLIYKASTLASGVSSRFKGSGSGTHFTLTISGVESADAATYYCQQGYSRSDGEHVFGGGTEVVVKR | 4.11 nM |

## Input // returns reported Kd for input 10B8 (antibody, human IgG1, kappa, V domains shown, Rabbit-human chimeric anti-ICAM1: rabbit VH and VL on human IgG1 and kappa constant regions) VH: QSLEESGGRLVTPGGSLTLTCTVSGFSLSSYGMSWVRQAPGKGLEYIGWISFSGSAYYANWAKGRFTISKTSTTVDLKITSPTTEDTATYFCARGGDYGGSTYILNLWGPGTLVTVSS VL: AFELTQTPSSVEAAVGGTVTIKCQASESINSYLSWYQQKPGQPPKLLIYAASTLASGVSSRFKGSGSGTEFTLTISDLESADAATYYCQSYSGTISTSGGAFGGGTEVVVKR
## Output 8.27 nM
